# credit: patent US6569878B1

System: SW-480
Assay: Inhibition of cell growth, MTT assay, SW-480
Assay type: cell-based
Settings: Homo sapiens, SW480; SW-480, MTT assay
With a cut-off of 10 µM, any IC90 strictly below it is called class 1; any IC90 meeting it or above is called class 0.

Here's what some known entries look like.
## Input Report whether reported IC90 is lower than 10 µM (strictly) for `CCOC(=O)c1ccc(Nc2nc(N)c(C(=O)c3ccccc3[N+](=O)[O-])s2)cc1`
## Output class 1

## Input Report whether reported IC90 is lower than 10 µM (strictly) for `Cc1nc2ccc(Nc3nc(N)c(C(=O)c4ccccc4[N+](=O)[O-])s3)cc2[nH]1`
## Output class 0

## Input Report whether reported IC90 is lower than 10 µM (strictly) for `CN(C)c1ccc(Nc2nc(N)c(C(=O)c3ccccc3[N+](=O)[O-])s2)cc1`
## Output class 1

## Input Report whether reported IC90 is lower than 10 µM (strictly) for `Nc1nc(Nc2ccccc2)sc1C(=O)c1cccc([N+](=O)[O-])c1`
## Output class 1

## Input Report whether reported IC90 is lower than 10 µM (strictly) for `Cc1c(C(=O)c2sc(Nc3ccc4nc[nH]c4c3)nc2N)sc2ccccc12`
## Output class 0

## Input Report whether reported IC90 is lower than 10 µM (strictly) for `COc1ccc(Nc2nc(N)c(C(=O)c3ccccc3[N+](=O)[O-])s2)cc1`
## Output class 1

Now let's try a different one.
## Input Report whether reported IC90 is lower than 10 µM (strictly) for `Nc1nc(NCCc2ccccc2)sc1C(=O)c1ccccc1[N+](=O)[O-]`
## Output class 1
